TARGET ENTITY: T1, human PDGFRb.hFc (human)
T1 construct: Soluble dimeric construct with human Fc; also called hPDGFRb.hFc
METHOD: SPR, mAb captured, 25 C
REPORTED METRIC: t1/2
Number first, unit second: that is the form wanted.

A selection of reference data follows.
BINDER	REPORTED METRIC	RESULT VALUE
H4H3106S (antibody, human IgG4, V domains shown, human IgG4 Fc (H4H prefix)) VH: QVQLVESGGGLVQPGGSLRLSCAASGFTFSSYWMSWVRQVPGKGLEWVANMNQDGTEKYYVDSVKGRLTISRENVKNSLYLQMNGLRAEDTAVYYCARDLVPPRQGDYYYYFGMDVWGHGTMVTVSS VL: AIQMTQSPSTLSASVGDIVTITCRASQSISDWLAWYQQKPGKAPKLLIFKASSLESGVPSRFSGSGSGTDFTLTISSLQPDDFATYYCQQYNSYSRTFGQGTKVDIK	t1/2	0.9 h
H4H3105S (antibody, human IgG4, V domains shown, human IgG4 Fc (H4H prefix)) VH: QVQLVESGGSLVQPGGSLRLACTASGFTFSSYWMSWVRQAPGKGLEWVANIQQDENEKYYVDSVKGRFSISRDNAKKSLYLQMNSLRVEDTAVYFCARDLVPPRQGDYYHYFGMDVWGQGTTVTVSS VL: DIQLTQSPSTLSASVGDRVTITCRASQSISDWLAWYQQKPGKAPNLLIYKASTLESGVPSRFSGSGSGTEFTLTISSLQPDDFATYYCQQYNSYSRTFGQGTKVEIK	t1/2	0.85 h
H4H3095S (antibody, human IgG4, V domains shown, human IgG4 Fc (H4H prefix)) VH: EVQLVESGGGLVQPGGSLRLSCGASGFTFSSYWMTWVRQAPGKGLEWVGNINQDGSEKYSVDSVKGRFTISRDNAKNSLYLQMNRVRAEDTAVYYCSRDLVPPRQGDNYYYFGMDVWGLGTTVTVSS VL: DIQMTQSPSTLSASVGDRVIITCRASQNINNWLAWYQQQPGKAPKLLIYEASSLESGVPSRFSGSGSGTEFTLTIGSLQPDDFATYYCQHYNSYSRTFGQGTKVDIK	t1/2	0.833 h
H4H3374N (antibody, human IgG4, V domains shown, human IgG4 Fc (H4H prefix)) VH: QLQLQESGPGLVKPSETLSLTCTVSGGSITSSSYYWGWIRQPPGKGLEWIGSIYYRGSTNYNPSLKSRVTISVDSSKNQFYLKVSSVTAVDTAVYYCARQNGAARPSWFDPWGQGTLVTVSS VL: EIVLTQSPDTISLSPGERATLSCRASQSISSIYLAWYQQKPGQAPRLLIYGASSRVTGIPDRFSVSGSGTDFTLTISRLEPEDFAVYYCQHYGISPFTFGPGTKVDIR	t1/2	2.15 h

Respectfully, I request t1/2 for each entry included below.
1. H4H3104S (antibody, human IgG4, V domains shown, human IgG4 Fc (H4H prefix)) VH: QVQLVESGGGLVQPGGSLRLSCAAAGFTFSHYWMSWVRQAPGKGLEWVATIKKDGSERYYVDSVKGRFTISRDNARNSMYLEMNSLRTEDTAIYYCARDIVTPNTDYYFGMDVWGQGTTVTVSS VL: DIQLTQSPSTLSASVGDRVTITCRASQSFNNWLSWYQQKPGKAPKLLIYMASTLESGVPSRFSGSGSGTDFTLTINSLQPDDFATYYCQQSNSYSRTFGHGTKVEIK
2. H4H3103S (antibody, human IgG4, V domains shown, human IgG4 Fc (H4H prefix)) VH: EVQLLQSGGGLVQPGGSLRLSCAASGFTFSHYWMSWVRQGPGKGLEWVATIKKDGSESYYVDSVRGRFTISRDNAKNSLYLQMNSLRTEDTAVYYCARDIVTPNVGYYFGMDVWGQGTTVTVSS VL: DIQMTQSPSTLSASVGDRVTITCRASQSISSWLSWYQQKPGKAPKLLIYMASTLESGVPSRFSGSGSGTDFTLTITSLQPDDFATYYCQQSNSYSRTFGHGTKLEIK

1. 1.32 h
2. 1.17 h
